Data origin, for the record: the supplement of paper PMC10567573

Quick reference: protein stability index of the listed items.
B1: KCNK9 (parent)
chain: DVPDLQSVCSCTCYRSQDYGGRSV

# Variants of: B1
# TEST DESCRIPTION: protein stability index of a GFP-peptide fusion (GPS, HEK-293T) (PSI 1-6); higher = more stable;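 also: lentivirally expressed fusions sorted by FACS into six bins by GFP to DsRed ratio, PSI derived from sequencing read proportions per bin multiplied by bin number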
# MEASUREMENT SETUP: c terminus: a fixed tail appended
Give only the figure.

| VARIANT ANNOTATION | protein stability index |
| --- | --- |
| D4Y | 2.86 |
| T12E | 2.4 |
| V24H | 1.64 |
| S23F | 2.11 |
| R22W | 2.4 |
| Y14Q | 1.53 |
| Y19Q | 2.44 |
| R15G | 2.23 |

Inquiry: Field request: protein stability index | item: `V24E`
Reply text: 2.15

Inquiry: Field request: protein stability index | item: `S23Y`
Reply text: 2.59

Inquiry: Field request: protein stability index | item: `V2F`
Reply text: 1.69

Inquiry: Field request: protein stability index | item: `V8Y`
Reply text: 1.86

Inquiry: Field request: protein stability index | item: `G20K`
Reply text: 2.37

Inquiry: Field request: protein stability index | item: `Y14V`
Reply text: 2.38
